Biological target: dipeptidyl peptidase IV from porcine kidney (Sus scrofa, UniProt P22411)
Construct: dipeptidyl peptidase IV from porcine kidney with a specific activity against glycylprolyl-4-nitroaniline of 37.5 U/mg; from tissue; host or cells: porcine kidney
Sequence (P22411 whole entry): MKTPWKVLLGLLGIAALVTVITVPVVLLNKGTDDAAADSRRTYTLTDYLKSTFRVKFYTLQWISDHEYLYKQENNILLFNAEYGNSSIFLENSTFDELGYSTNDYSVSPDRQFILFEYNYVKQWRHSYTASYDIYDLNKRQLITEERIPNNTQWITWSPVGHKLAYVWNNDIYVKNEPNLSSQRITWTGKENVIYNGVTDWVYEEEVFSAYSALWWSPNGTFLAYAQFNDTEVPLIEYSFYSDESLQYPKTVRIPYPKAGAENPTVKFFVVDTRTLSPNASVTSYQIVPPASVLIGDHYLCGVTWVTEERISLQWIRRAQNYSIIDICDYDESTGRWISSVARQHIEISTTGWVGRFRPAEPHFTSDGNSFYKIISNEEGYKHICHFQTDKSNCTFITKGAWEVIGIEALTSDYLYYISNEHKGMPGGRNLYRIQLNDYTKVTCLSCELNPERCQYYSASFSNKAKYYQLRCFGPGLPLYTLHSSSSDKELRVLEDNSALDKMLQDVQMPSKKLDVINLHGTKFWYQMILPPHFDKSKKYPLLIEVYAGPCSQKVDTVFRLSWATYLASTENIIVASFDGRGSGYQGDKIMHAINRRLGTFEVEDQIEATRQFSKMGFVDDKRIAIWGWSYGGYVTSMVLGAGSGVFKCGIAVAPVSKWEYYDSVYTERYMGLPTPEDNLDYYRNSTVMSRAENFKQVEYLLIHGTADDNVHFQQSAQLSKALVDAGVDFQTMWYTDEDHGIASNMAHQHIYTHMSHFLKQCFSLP
Test: Ki determination, DPIV inhibition (inhibitor released from prodrug by APN)
Type: biochemical
Details: same assay as Ki; unstable competitive inhibitor
measured.parameter: T1/2 (half-life, from enzyme activity versus reaction time) (min)

Example molecules with recorded T1/2 (half-life, from enzyme activity versus reaction time):
{"columns": ["molecule", "numeric.result"],
 "data": [
  ["Br.CC(C)[C@H](NC(=O)[C@H](C)N)C(=O)N1CCC[C@H]1C(=O)COC(=O)c1ccccc1", 15.1],
  ["CC(C)[C@H](NC(=O)[C@H](C)N)C(=O)N1CCC[C@H]1C(=O)c1nc2ccccc2s1.O=C(O)C(F)(F)F [H-Ala-Val-Pro-CO-Benzothiazole*TFA]", 17.0],
  ["Br.CC(=O)OCC(=O)[C@@H]1CCCN1C(=O)[C@@H](NC(=O)[C@H](C)N)C(C)C", 10.8],
  ["Br.CC(=O)[C@@H]1CCCN1C(=O)[C@@H](NC(=O)[C@H](C)N)C(C)C", 12.4]
]}

A: CC(C)[C@H](NC(=O)[C@H](C)N)C(=O)N1CCC[C@H]1C(=O)c1nccs1.O=C(O)C(F)(F)F [H-Ala-Val-Pro-CO-Thiazole*TFA]
B: C[C@H](N)C(=O)NCC(=O)N1CCC[C@H]1C(=O)c1nc2ccccc2s1.O=C(O)C(F)(F)F [H-Ala-Gly-Pro-CO-Benzothiazole*TFA]
Query string: Hi team, can someone confirm which has the larger T1/2 (half-life, from enzyme activity versus reaction time): A or B ? Thanks. Answer format: the label of the selected item.
Result string: A

----------
Molecular target: dipeptidyl peptidase IV from porcine kidney (Sus scrofa)
Construct: dipeptidyl peptidase IV from porcine kidney with a specific activity against glycylprolyl-4-nitroaniline of 37.5 U/mg; from tissue; host or cells: porcine kidney
Experiment: Ki determination, DPIV inhibition (inhibitor released from prodrug by APN)
Format: biochemical
Details: porcine kidney DPIV, substrate Gly-Pro-pNA, APN added to release inhibitor, HEPES pH7.6; read-out: Ki
pKi: −log10 of the molar value.
measured.parameter: pKi

{"columns": ["compound", "pKi"],
 "data": [
  ["Br.CC(=O)[C@@H]1CCCN1C(=O)[C@@H](NC(=O)[C@H](C)N)C(C)C [H-Ala-Val-Pro-Me*HBr, hydrobromide]", 7.32],
  ["C[C@H](N)C(=O)NCC(=O)N1CCC[C@H]1C(=O)c1nc2ccccc2s1.O=C(O)C(F)(F)F [H-Ala-Gly-Pro-CO-Benzothiazole*TFA, trifluoroacetate]", 6.97],
  ["CC(C)[C@H](NC(=O)[C@H](C)N)C(=O)N1CCC[C@H]1C(=O)c1nc2ccccc2s1.O=C(O)C(F)(F)F [H-Ala-Val-Pro-CO-Benzothiazole*TFA, trifluoroacetate]", 7.43],
  ["CC(C)[C@H](NC(=O)[C@H](C)N)C(=O)N1CCC[C@H]1C(=O)c1nccs1.O=C(O)C(F)(F)F [H-Ala-Val-Pro-CO-Thiazole*TFA, trifluoroacetate]", 7.48]
]}

A: Br.CC(C)[C@H](NC(=O)[C@H](C)N)C(=O)N1CCC[C@H]1C(=O)COC(=O)c1ccccc1 [H-Ala-Val-Pro-CO—CH2O—CO—Ph*HBr, hydrobromide]
B: Br.CC(=O)OCC(=O)[C@@H]1CCCN1C(=O)[C@@H](NC(=O)[C@H](C)N)C(C)C [H-Ala-Val-Pro-CH2O—CO—CH3*HBr, hydrobromide]
Query string: Hi, I'm comparing two records. Which one has the lower pKi, A or B ? Use the label to indicate which entry you chose.
Result string: B

----------
Target protein (sequence): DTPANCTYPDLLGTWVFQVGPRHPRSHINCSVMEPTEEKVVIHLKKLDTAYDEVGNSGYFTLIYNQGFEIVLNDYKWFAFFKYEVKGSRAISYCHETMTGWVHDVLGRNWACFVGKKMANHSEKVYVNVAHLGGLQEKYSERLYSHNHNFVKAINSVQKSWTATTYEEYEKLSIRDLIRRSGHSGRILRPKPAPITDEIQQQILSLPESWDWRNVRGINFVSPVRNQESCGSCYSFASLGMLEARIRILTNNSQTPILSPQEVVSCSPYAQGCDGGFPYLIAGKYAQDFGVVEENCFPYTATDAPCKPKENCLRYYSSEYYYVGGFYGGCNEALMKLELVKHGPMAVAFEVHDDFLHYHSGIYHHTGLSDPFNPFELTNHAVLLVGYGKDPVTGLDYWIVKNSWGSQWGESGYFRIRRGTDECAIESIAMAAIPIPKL
pIC50: −log10 of the molar value.
measured.parameter: pIC50

P: Br.CC(=O)OCC(=O)[C@@H]1CCCN1C(=O)[C@@H](NC(=O)[C@H](C)N)C(C)C [H-Ala-Val-Pro-CH2O—CO—CH3*HBr, hydrobromide]
Q: Br.CC(C)[C@H](NC(=O)[C@H](C)N)C(=O)N1CCC[C@H]1C(=O)COC(=O)c1ccccc1 [H-Ala-Val-Pro-CO—CH2O—CO—Ph*HBr, hydrobromide]
Query string: Endpoint returns the identifier whose pIC50 is numerically larger, either P or Q . Indicate your choice by writing its label.
Result string: P
(P: 3.92, Q: 3.50)

----------
Target: UniProt P22411
Test: Determination of IC50 values against DPIV
Assay type: biochemical
Details: Gly-Pro-pNA 0.4 mM, APN, 30° C., HEPES pH7.6, read-out: IC50
Where a name gives a salt, the structure may show the parent alone.
measured.parameter: IC50 (µM)

Recorded IC50, per entry:
{"columns": ["compound", "measured.parameter", "numeric.result"],
 "data": [
  ["Br.CC(=O)OCC(=O)[C@@H]1CCCN1C(=O)[C@@H](NC(=O)[C@H](C)N)C(C)C [H-Ala-Val-Pro-CH2O—CO—CH3*HBr, hydrobromide]", "IC50", 0.0102],
  ["Br.CC(C)[C@H](NC(=O)CN)C(=O)N1CCC[C@H]1C(=O)COC(=O)c1ccccc1 [H-Gly-Val-Pro-CO—CH2O—CO—Ph*HBr, hydrobromide]", "IC50", 4.94],
  ["CC(C)[C@H](NC(=O)[C@H](C)N)C(=O)N1CCC[C@H]1C(=O)c1ccccn1 [H-Ala Val-Pro-CO-(2-Pyridinyl)*TFA, trifluoroacetate]", "IC50", 1100]
]}

A: CC(C)[C@H](NC(=O)[C@H](C)N)C(=O)N1CCC[C@H]1C(=O)CSCc1c(Cl)cccc1Cl
B: Br.CC(=O)[C@@H]1CCCN1C(=O)[C@@H](NC(=O)[C@H](C)N)C(C)C [H-Ala-Val-Pro-Me*HBr, hydrobromide]
Query string: Of A and B , which one carries the higher reported IC50? Your answer should be the label attached to the chosen record.
Result string: A

----------
Molecular target: Prolidase from porcine kidney (Sus scrofa)
Sequence (A0A5G2QQV1 1-463): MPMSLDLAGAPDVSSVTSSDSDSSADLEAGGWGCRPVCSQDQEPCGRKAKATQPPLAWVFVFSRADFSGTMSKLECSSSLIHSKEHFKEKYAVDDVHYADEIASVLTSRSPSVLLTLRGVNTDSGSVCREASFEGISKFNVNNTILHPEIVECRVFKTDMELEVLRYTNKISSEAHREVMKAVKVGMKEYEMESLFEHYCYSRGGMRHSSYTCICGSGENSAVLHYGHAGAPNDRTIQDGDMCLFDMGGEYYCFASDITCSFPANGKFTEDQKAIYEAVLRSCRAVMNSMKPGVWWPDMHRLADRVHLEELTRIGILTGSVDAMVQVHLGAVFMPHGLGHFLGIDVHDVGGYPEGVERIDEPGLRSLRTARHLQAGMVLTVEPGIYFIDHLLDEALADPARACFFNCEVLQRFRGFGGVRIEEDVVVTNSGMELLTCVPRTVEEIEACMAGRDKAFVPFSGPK
measured.parameter: IC50 (µM)

{"columns": ["compound", "units.label", "IC50"],
 "data": [
  ["Br.CC(=O)[C@@H]1CCCN1C(=O)[C@@H](NC(=O)[C@H](C)N)C(C)C [H-Ala-Val-Pro-Me*HBr, hydrobromide]", "µM", 413],
  ["Br.CC(C)[C@H](NC(=O)[C@H](C)N)C(=O)N1CCC[C@H]1C(=O)COC(=O)c1ccccc1 [H-Ala-Val-Pro-CO—CH2O—CO—Ph*HBr, hydrobromide]", "µM", 414]
]}
